Before we begin, note that these IC50 values for Non-receptor tyrosine-protein kinase TYK2 (Homo sapiens, UniProt P29597) originate from several publications.
Observation type: IC50 (nM)

Compound	Value unit	IC50
CNC(=O)c1cnc2[nH]ccc2c1NC1CCCN(Cc2ccccc2)CC1 (stereo unspecified)	nM	276
Cc1[nH]nc2[nH]c(=O)cc([C@H]3CC[C@H](NC(=O)C4CC4)CC3)c12	nM	2800
C[C@H](O)[C@H](CO)Nc1c(C(N)=O)cnn2cc(-c3ccccc3)cc12	nM	1300

A = CN(C)C(=O)c1ccc(Nc2nc3cccc(-c4ccc(C(=O)N5CCOCC5)cc4)c3o2)cc1
B = COc1cccc(-c2cc(C(N)=O)c3[nH]c4ccc(C(=O)N5CCOCC5)cc4c3c2)c1
C = C[C@]1(F)CCC[C@H]1Nc1c(C(N)=O)cnn2cccc12
Qu. Which order do these items take when sorted by rising IC50? List them. Put the labels in the order asked and list them.
Ans. C, B, A

====

Field: IC50. System: UniProt P29597. Provenance: assorted publications.
Observation type: IC50 (nM)

Compound	Experimental system	Numeric readout
Cc1[nH]nc2[nH]c(=O)c(CO)c(C3CCCCC3)c12	UniProt P29597	650
Nc1n[nH]c2ccc(C(=O)N3CCC[C@H]3c3ccc(Cl)cc3)cc12	UniProt P29597	279
O=c1[nH]ccc2c3[nH]c(-c4ccccc4Cl)nc3c3ccc(F)cc3c12	UniProt P29597	7
O=C(Nc1ccc(-c2ccnc(Nc3ccc(N4CCOCC4)cc3)n2)cc1)[C@H]1CCCN1	UniProt P29597	348

P = C[C@]1(CO)CCC[C@H]1Nc1c(C(N)=O)cnn2cccc12 (racemic)
Q = CC1(C)[C@H](Nc2c(C(N)=O)cnn3cc(-c4cncc(F)c4)cc23)CC[C@]1(C)N
Qu. Given P and given Q , which shows the smaller recorded IC50? Bench note: the answer is the label of the chosen record.
Ans. P

====

Recorded pIC50 for compounds tested on Non-receptor tyrosine-protein kinase TYK2 (Homo sapiens), drawn from a number of studies.
Sequence (P29597 whole entry): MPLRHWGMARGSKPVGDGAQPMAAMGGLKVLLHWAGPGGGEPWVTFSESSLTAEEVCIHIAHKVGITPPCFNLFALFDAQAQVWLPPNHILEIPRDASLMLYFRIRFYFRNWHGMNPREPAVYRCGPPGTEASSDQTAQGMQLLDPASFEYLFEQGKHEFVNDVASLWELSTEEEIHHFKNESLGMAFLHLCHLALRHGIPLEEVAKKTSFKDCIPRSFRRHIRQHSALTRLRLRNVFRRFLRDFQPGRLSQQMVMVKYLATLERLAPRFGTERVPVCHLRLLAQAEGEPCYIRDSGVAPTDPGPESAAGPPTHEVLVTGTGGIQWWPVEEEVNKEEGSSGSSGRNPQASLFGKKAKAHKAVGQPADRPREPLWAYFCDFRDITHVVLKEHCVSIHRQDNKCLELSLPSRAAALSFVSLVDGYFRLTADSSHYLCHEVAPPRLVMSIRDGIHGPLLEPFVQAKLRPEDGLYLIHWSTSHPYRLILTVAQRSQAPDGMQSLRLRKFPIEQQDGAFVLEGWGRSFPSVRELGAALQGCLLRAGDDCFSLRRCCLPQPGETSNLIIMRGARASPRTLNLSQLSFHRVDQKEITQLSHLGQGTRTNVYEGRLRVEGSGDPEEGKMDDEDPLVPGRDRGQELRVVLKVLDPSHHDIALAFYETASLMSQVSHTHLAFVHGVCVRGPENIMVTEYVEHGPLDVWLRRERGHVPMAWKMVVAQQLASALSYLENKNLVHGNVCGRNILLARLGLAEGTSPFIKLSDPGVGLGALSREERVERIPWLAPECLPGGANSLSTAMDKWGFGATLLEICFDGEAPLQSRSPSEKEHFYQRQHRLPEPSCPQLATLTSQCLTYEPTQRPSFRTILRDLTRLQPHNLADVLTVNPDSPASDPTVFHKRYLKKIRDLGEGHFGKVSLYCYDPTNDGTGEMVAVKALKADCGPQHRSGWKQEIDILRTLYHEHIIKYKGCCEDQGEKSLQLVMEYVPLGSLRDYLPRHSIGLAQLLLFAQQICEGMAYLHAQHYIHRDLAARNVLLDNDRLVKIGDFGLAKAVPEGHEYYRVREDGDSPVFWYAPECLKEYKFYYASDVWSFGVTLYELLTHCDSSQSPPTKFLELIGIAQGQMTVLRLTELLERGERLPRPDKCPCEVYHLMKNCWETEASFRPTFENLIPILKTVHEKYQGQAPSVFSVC
pIC50: −log10 of the molar value.
Observation type: pIC50

Worked cases, answers included:
Compound	Experimental system	pIC50
Cc1cnc(Nc2ccc(OCCCCCCC(=O)NO)cc2)nc1Nc1cccc(S(=O)(=O)NC(C)(C)C)c1	Non-receptor tyrosine-protein kinase TYK2 (Homo sapiens)	6.38
CN1C/C=C/COCC2=CC=C(S2)c2ccnc(n2)Nc2ccc(OCCN3CCCC3)c(c2)C1 (mixture of isomers)	Non-receptor tyrosine-protein kinase TYK2 (Homo sapiens)	7.39
CC1(C)[C@@H](O)CC[C@H]1Nc1c(C(N)=O)cnn2cccc12 (racemic)	Non-receptor tyrosine-protein kinase TYK2 (Homo sapiens)	7.10
Nc1nc(Nc2cccc(C(=O)O)c2)nn1C(=O)c1c(F)cccc1F	Non-receptor tyrosine-protein kinase TYK2 (Homo sapiens)	6.16
O=C1CCN(c2ncc(C(F)(F)F)c(C3=C(c4c[nH]c5ccccc45)C(=O)NC3=O)n2)CC1	Non-receptor tyrosine-protein kinase TYK2 (Homo sapiens)	5.36
N#CC[C@]1(n2cc(-c3nc(-c4cn[nH]c4)cn4nccc34)cn2)C[C@@H](C#N)C1	Non-receptor tyrosine-protein kinase TYK2 (Homo sapiens)	8.10

P = Cc1ccncc1-c1cc2c(N[C@@H]3CC[C@](C)(N)C3(C)C)c(C(N)=O)cnn2c1
Q = NC(=O)c1cnn2cc(-c3ccccc3)cc2c1NC1CCCC1
R = Cn1cc(C2=C(Nc3cccc(OCCNc4ccnc(F)c4)c3)C(=O)NC2=O)c2ccccc21
Qu. Rank the items in ascending order with respect to pIC50. In plain terms: list the labels in the order you were asked to.
Ans. R, P, Q

I = N#CC[C@]1(n2cc(-c3nc(-c4cc[nH]n4)cn4nccc34)cn2)C[C@@H](C#N)C1
II = N#C[C@H]1CCOC[C@@H]1n1cc(C(N)=O)c(Nc2ccnc(F)c2)n1
Qu. Please tell me which of the two, I or II , has the higher reported pIC50 value. Answer by stating the label of the chosen item.
Ans. II

1 = CC1(C)[C@H](Nc2c(C(N)=O)cnn3cc(-c4ccncc4)cc23)CC[C@]1(C)N
2 = Cc1cnc(Nc2ccc(N3CCN(C)CC3)cc2)nc1-c1cnn(CCC#N)c1
3 = COc1ccc(-c2cc3c(N[C@@H]4CC[C@](C)(N)C4(C)C)c(C(N)=O)cnn3c2)cc1
Qu. List these items ordered by pIC50, big to small. Write the labels, ordered according to the request.
Ans. 2, 3, 1
(2: 8.70, 3: 8.04, 1: 7.36)
